Source listed as patent US20260125478A1.

measured-on: T1, recombinant FcγRIIA-131H/H allotype (ELISA coat, generated at MedImmune) (human, UniProt P12318 34-217, limits assumed)
T1 construct: also called human FcγRIIA; CD32A
T1 sequence (looked up): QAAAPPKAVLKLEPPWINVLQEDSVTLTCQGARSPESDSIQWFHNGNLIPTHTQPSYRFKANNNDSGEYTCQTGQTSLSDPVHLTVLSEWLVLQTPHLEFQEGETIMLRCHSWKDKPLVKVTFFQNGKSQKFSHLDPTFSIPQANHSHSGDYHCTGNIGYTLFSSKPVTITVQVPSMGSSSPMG
experiment: ELISA on plate-coated FcγRIIA-131H/H (2 µg/ml), detection with goat anti-human Fc-HRP
outcome-measure: EC50 (read off the curve)

- binder: "32LO0354 (antibody, human IgG1, V domains shown, also called optimized IV.3 clone 32LO0354) VH: QVQLVQSGAEVKKPGASVKVSCKASGYTFTNYGMNWVRQAPGQRLEWMGWLNTYTGESYYPDDFKGRVTITRDTSASTAYMELSSLRSEDTAVYYCARGDYGYDDPLDYWGQGTLVTVSS VL: DIVMTQSPLSLPVTPGEPASISCRSSKSLLHTNRNTYLHWFLQKPGQSPQLLIYRMSVLASGVPDRFSGSGSGTDFTLKISRVEAEDVGVYYCMQHLEYPLTFGQGTKLEIK"
  EC50 (read off the curve): "~5 ng/mL"
- binder: "32LO0352 (MEDI9600) (antibody, human IgG1, V domains shown, Fluorescently labelled in the neutrophil flow cytometry assay and Alexa 647 labelled for confocal microscopy; also called clone 32LO0352; CD32LO0352) VH: QVQLVQSGAEVKKPGASVKVSCKASGYTFTNYGMNWVRQAPGQRLEWMGWLNTYTGESWYPDDFKGRVTITRDTSASTAYMELSSLRSEDTAVYYCARGDYGYDDPLDYWGQGTLVTVSS VL: DIVMTQSPLSLPVTPGEPASISCRSSKSLLHTNQNTYLHWFLQKPGQSPQLLIYRMSVLASGVPDRFSGSGSGTDFTLKISRVEAEDVGVYYCMQHLEYPLTFGQGTKLEIK"
  EC50 (read off the curve): "~5 ng/mL"

Look at this binder and give its reported EC50 (read off the curve). 32LO0350 (antibody, human IgG1, V domains shown, also called optimized IV.3 clone 32LO0350) VH: QVQLVQSGAEVKKPGASVKVSCKASGYTFTNYGMNWVRQAPGQRLEWMGWLNTYTGESWYPDDFKGRVTITRDTSASTAYMELSSLRSEDTAVYYCARGDYGYDDPLDYWGQGTLVTVSS VL: DIVMTQSPLSLPVTPGEPASISCRSSKSLLHTNRNTYLHWFLQKPGQSPQLLIYRMSVLASGVPDRFSGSGSGTDFTLKISRVEAEDVGVYYCMQHLEYPLTFGQGTKLEIK
~5 ng/mL
